# assay_target: Amyloid-beta precursor protein (Homo sapiens)
# experiment: Inhibition of HFIP-pretreated amyloid beta (1 to 42) (unknown origin) self-induced aggregation at 20 uM incubated for 24 hrs under dark condition by thioflavin-T based fluorometric assay relative to control
Activity calls are given as the source filed them. The rule behind the calls is not given here.
endpoint_name: inhibition

structure_smiles_string	inhibition
C[C@@H]1O[C@@H](Oc2c(-c3cc(O)c(O)c(O)c3)oc3cc(O)cc(O)c3c2=O)[C@H](O)[C@H](O)[C@H]1O	62.2%
O=C(Oc1cc(O)c2c(c1)O[C@H](c1ccc(O)c(O)c1)[C@@H](O)C2)c1cc(O)c(O)c(O)c1	Active
O=C(O[C@@H]1Cc2c(O)cc(O)cc2O[C@@H]1c1cc(O)c(O)c(O)c1)c1cc(O)c(O)c(O)c1	86.1%
O=C(Oc1cc(O)c2c(c1)O[C@H](c1cc(O)c(OC(=O)c3cc(O)c(O)c(O)c3)c(O)c1)[C@@H](O)C2)c1cc(O)c(O)c(O)c1	56.3%
COc1cc(-c2cc(=O)c3c(OC)cc(O)cc3o2)ccc1O	Active
Oc1cc([C@@H]2CCc3c(O)cccc3O2)cc(O)c1O	59.6%
O=C(Oc1cc(O)c2c(c1)O[C@H](c1cc(O)c(O)c(O)c1)[C@@H](O)C2)c1cc(O)c(O)c(O)c1	Active
O=c1c(O)c(-c2ccc(O)c(O)c2)oc2cc(O)cc(O)c12	88.4%
COc1cc(O)cc2oc(-c3ccc(O)cc3)cc(=O)c12	Active
COc1cc(OC)c2c(c1)O[C@H](c1cc(O)c(O)c(OC)c1)[C@@H](O)C2	Active

Exam item: Query (molecule): `C[C@@H]1Oc2cccc(O)c2C(=O)[C@@H]1O` ; field requested: inhibition
Marked response: Active

Exam item: Then this molecule: `O=c1cc(-c2ccc(O)c(O)c2)oc2cc(O)cc(O)c12`
Marked response: 86.5%

Exam item: Then this molecule: `O=C(Oc1cc(O)c2c(c1)O[C@@H](c1cc(O)c(O)c(O)c1)CC2)c1cc(O)c(O)c(O)c1`
Marked response: Active

Exam item: Then this molecule: `O=C1c2ccc(O)c(O)c2O[C@H](c2ccc(O)c(O)c2)[C@H]1O`
Marked response: 87.7%

Exam item: Then this molecule: `COc1cc(O)c(C[C@H](O)Cc2ccc(O)c(OC)c2)c(OC)c1`
Marked response: Active

Exam item: Then this molecule: `C[C@H]1O[C@H](Oc2c(-c3ccc(O)c(O)c3)oc3cc(O)cc(O)c3c2=O)[C@@H](O)[C@@H](O)[C@@H]1O`
Marked response: 70.7%
